# assay name: The drug is tested on WLS-240 corresponding to human gut metagenome with ENA study accession number: PRJEB37062 and ENA sample accession number: ERS12561773 for biotransformation under anaerobic condition. The drug concentrations were measured over 9 timepoints collected between 0 and 24 hours of incubation by liquid-chromatography-coupled mass spectrometry (LC–MS); note: call rule not given here
# stated conditions: 2 µM
readout: Bacterial Biotransformation

Which Bacterial Biotransformation value belongs to CN(C)C(=O)Oc1cc(OC(=O)N(C)C)cc(C(O)CNC(C)(C)C)c1 (stereo not drawn) [BAMBUTEROL] ?
Compound metabolized

Request the reported Bacterial Biotransformation associated with OCCN(CCO)c1nc(N2CCCCC2)c2nc(N(CCO)CCO)nc(N3CCCCC3)c2n1 [DIPYRIDAMOLE]
Compound metabolized

Given the entry CCCC(C)(COC(N)=O)COC(=O)NC(C)C (stereo not drawn) [CARISOPRODOL] , report its measured Bacterial Biotransformation.
Compound metabolized
